Reported pKd is given for each of the following binders.
biological target: T1, soluble human BLyS (human, UniProt Q9Y275 134-285); experiment: Biacore
T1 construct: also called hBLyS; human BAFF (BLyS)
Scale for pKd: -log10 of concentration given in mol/L; no unit attached.

>  <BINDER>
6C10 IgG expressed in HEK293 cells (antibody, V domains shown, IgG from HEK293-FreeStyle cells; also called 6C10 (293)) VH: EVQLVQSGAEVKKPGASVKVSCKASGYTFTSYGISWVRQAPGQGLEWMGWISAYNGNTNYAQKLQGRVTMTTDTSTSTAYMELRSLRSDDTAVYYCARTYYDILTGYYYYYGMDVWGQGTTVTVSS VL: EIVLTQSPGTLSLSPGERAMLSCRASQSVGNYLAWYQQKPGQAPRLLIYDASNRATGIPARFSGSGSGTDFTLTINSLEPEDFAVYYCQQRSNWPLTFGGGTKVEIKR

>  <VALUE_MEASURED>
9.29

$$$$
>  <BINDER>
5B7 IgG expressed in HEK293 cells (antibody, V domains shown, also called 5B7 (293); 5B7-HEK293) VH: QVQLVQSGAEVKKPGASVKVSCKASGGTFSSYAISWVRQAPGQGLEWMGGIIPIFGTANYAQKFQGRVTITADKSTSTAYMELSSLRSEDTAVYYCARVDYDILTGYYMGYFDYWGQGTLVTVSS VL: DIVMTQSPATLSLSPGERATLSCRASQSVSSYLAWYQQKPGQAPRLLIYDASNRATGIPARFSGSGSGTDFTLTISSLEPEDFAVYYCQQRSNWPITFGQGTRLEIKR

>  <VALUE_MEASURED>
9.40

$$$$
>  <BINDER>
8A12 IgG expressed in HEK293 cells (antibody, V domains shown, IgG from HEK293-FreeStyle cells) VH: QVQLVQSGGGLVQPGGSLRLSCAASGFTFSSYAMSWVRQAPGKGLEWVSAISGSGGSTYYADSVKGRFTISRDNSKNTLYLQMNSLRAEDTAVYYCAREGQGYDILTGYYTRGYYFDYWGQGTLVTVSS VL: QSALTQPASVSGSPGQSITISCTGTSSDVGGYNYVSWYQQLPGKAPKLMIYEVSKRPSGVPDRFSGSKSGNTASLTISGLQAEDEADYYCSSYAGSSSWVFGGGTKLTVLG

>  <VALUE_MEASURED>
8.37

$$$$
>  <BINDER>
8D12 IgG expressed in HEK293 cells (antibody, V domains shown, IgG from HEK293-FreeStyle cells; also called 8D12 (293)) VH: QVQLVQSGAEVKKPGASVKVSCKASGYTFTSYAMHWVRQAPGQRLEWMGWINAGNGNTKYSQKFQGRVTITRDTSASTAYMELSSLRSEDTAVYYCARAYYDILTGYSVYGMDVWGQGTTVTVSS VL: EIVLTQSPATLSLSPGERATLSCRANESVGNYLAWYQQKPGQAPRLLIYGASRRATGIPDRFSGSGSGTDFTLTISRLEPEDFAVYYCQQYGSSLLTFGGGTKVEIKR

>  <VALUE_MEASURED>
9.18

$$$$

Field: next binder
Param item = 9F8 IgG expressed in HEK293 cells (antibody, V domains shown, IgG from HEK293-FreeStyle cells) VH: QVQLQQSGAEVKKPGASVKVSCKASGYTFTSYYMHWVRQAPGQGLEWMGWINAGNGNTKYSQKFQGRVTITRDTSASTAYMELSSLRSEDTAVYYCARDNLSYDILTGYSFGGWFDPWGQGTLVTVSS VL: QSALTQPASVSGSPGQSITISCTGTSSDIGRYNYVSWYQQRPGRAPKVIIYDVSSRPSGVSKRFSASKSGNTASLTISGLQAEDEAVYYCSSYTRITTLYVFGPGTKVTVLG ; retrieve measured pKd.
8.96

The measured values listed here are drawn from patent US20170101466A1.
